- Test system: SK-MEL-2 melanoma
- protocol: NCI-60 one-dose screen, 48 h (100 = growth as untreated, 0 = no growth, -100 = all killed)
- setup.conditions: 10 µM unless noted
About 83,000 compounds went through this panel and 20% of them were active in at least one assay; those are over-represented in the sample as a whole.
reported.property: growth (%)
Output spec: scalar in %, unitless text.

Past entries and their recorded results:
• Nc1nn2c(-c3cc4cc(Br)ccc4oc3=O)ccnc2c1N=Nc1ccc(Br)cc1 = 60
• CC1=C(C(=O)Nc2ccccc2)C(c2cccc(Cl)c2Cl)n2c(nc3ccccc32)N1 (centres undefined) = 75.2
• COc1ccc(NC(=O)N/N=C/c2c[nH]c3ccccc23)cc1 = -10.7

Given item COc1ccc(-c2nc3ccccc3n2CC(=O)N=Nc2c(O)[nH]c3ccc(Br)cc23)cc1 , the value recorded as its growth is 85.4

Given item COC(=O)c1c(C(=O)OC)c2ccc3c4ccccc4ccc3n2c1C(=O)C(C)Br (centres undefined) , the value recorded as its growth is 26.9

Given item O=C1Nc2cc(-c3ccc(NS(=O)(=O)c4ccc(F)c(Cl)c4)cc3)ccc2/C1=C/c1ccc[nH]1 , the value recorded as its growth is 55.8

Given item COc1cc(CNC(=O)C[C@H](C)CCC=C(C)C)ccc1OCc1cn(-c2ccc(Cl)c(Cl)c2)nn1 , the value recorded as its growth is 93.7

Given item N#Cc1c(NC(=O)N2CCOCC2)n(-c2ccc(OC(F)(F)F)cc2)c2cc(F)ccc12 , the value recorded as its growth is 94

Given item O=C(NC(=S)N1CCN(c2ncnc3c2cnn3-c2ccccc2)CC1)c1ccc(F)cc1 , the value recorded as its growth is 91.6
